# experimental_system: rhCRTh2 (Homo sapiens)
# Sequence (Q9Y5Y4 whole entry): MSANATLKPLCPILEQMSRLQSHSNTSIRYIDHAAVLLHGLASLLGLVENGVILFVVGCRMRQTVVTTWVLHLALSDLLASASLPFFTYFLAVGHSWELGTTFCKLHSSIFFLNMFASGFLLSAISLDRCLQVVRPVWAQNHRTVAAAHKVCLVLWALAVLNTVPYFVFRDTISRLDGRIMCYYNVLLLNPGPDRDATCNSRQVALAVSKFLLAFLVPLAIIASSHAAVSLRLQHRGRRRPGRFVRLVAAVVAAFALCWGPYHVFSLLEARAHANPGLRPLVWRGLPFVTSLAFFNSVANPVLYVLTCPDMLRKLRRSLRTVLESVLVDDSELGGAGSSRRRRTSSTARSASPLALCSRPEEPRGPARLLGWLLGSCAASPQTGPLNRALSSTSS
pIC50: −log10 of the molar value.

>  <compound>
Cc1ccc2c(c1)c([S+]([O-])c1ccc(Cl)cc1)c(C)n2CC(=O)O (stereo not shown) [Example 7]

>  <experimental_system>
rhCRTh2 (Homo sapiens)

>  <pIC50>
6.60

$$$$
